Where do the numbers come from? From patent US10030016B2.

As shown below, each of these molecules has a reported EC50 value.
- System: phospho-akt (Thr308) in PC-3 cells
- assay_procedure: Inhibition of phospho-akt (Thr308) in PC-3 cells, MSD phospho-akt 308 ELISA kit
- Format: cell-based
- condition_summary: Homo sapiens; inhibition of P308 Akt in PC-3 cells using MSD, 2 hours, no serum; read-out: EC50
experimental_readout: EC50

>>> measured("C[C@H](NC(=O)c1nc(C#N)cnc1NCc1ccc(-c2cnc(N)c(-c3cccc(N)c3)n2)cc1)c1ccc(F)c(F)c1 [Example 238]")
"< 1000 nM"
>>> measured("N#Cc1cnc(NCc2ccc(-c3cnc4[nH]c(=O)[nH]c4c3)cc2)c(C(=O)NCc2ccc(F)c(F)c2)n1 [Example 364]")
"< 1000 nM"
>>> measured("C[C@H](NC(=O)c1nc(C#N)cnc1NCc1ccc(-c2cn(CCN)c3ncnc(N)c23)cc1)c1ccc(F)c(F)c1 [Example 319]")
"< 1000 nM"
>>> measured("Cc1nc2[nH]nc(N)c2cc1-c1ccc(CNc2ncc(C#N)nc2C(=O)N[C@@H](C)c2ccc(F)c(F)c2)cc1 [Example 400]")
"1000 to 10000 nM"
>>> measured("Nc1n[nH]c2ncc(-c3ccc(CNc4ncc(C(F)(F)F)cc4C(=O)NCc4ccc(Cl)cc4)cc3)cc12 [Example 279]")
"< 1000 nM"
>>> measured("Nc1n[nH]c2ncc(-c3ccc(CNc4ncc(C(F)(F)F)cc4C(=O)Nc4ccncc4)cc3)cc12 [Example 288]")
"1000 to 10000 nM"
>>> measured("N#Cc1cc(F)ccc1NC(=O)c1cc(C(F)(F)F)cnc1NCc1ccc(-c2cnc3[nH]nc(N)c3c2)cc1 [Example 418]")
"1000 to 10000 nM"
>>> measured("Nc1ncc(-c2ccc(CNc3ncc(C(F)(F)F)cc3C(=O)Nc3ccc(F)cc3)cc2)nc1O[C@@H]1CCC[C@H]1N [Example 173]")
"< 1000 nM"
>>> measured("Nc1n[nH]c2ncc(-c3ccc(CNc4ncc(C(F)(F)F)cc4C(=O)Nc4ccc(F)nc4)cc3)cc12 [Example 267]")
"< 1000 nM"
>>> measured("Cn1cnc2cnc3ccc(-c4cnc(CNc5ncccc5C(=O)NCc5ccc(F)c(F)c5)s4)cc3c21 [Example 384]")
"< 1000 nM"
>>> measured("Nc1n[nH]c2ncc(-c3ccc(CNc4ncc(C(F)(F)F)cc4C(=O)NCc4cccc(Cl)c4)cc3)cc12 [Example 281]")
"< 1000 nM"
>>> measured("C[C@H](NC(=O)c1cc(C#N)cnc1NCc1ccc(-c2ccc(N)nc2)cc1)c1ccc(F)c(F)c1 [Example 367]")
"< 1000 nM"
>>> measured("CNc1ncc2cc(O[C@@H](C)CNc3ncc(C#N)cc3C(=O)N[C@@H](C)c3ccc(F)cc3)ccc2n1 [Example 253]")
"> 10000 nM"
>>> measured("CC(=O)Nc1ccc(-c2ccc(CNc3ncc(C#N)cc3C(=O)N[C@@H](C)c3ccc(F)cc3)cc2)cn1 [Example 105]")
"< 1000 nM"
